target: hMRGX2 (CHO-K1 cells overexpressing MRGX2) (Homo sapiens (Human)); test: In vitro inhibition (EC50) of intracellular calcium flux, FLIPR Tetra, substance P stimulation; assay type: cell-based; settings: stimulated with MRGX2 ligand substance P, FLIPR Calcium 5, read-out: hMRGX2 Cellular Potency (pEC50) (converted)
Sequence (Q96LB1 whole entry): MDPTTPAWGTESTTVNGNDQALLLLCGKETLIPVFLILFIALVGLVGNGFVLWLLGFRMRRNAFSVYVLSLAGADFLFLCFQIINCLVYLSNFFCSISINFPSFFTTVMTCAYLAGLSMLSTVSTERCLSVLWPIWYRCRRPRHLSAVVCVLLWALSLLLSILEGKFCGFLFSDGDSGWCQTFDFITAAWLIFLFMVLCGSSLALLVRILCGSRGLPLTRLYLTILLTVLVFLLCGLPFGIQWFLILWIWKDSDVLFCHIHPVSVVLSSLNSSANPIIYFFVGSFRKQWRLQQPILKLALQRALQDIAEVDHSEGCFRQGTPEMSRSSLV
Mark t for EC50 under 40 nM, f if at or over.

# input Lab log: compare recorded EC50 with 40 nM; is it strictly lower for COC(C)CNC1=NS(=O)(=O)c2cccc(-c3cc(F)cc(F)c3F)c2N1 (centres unmarked) [Example 127] ?
# output f

# input Is EC50 of COCCNC1=NS(=O)(=O)c2cccc(-c3ccc(F)c(F)c3C)c2N1 [Example 170] strictly below 40 nM?
# output f

# input API: query returns whether the compound falls strictly under 40 nM in EC50. Query: N#Cc1c(F)cccc1-c1cccc2c1NC(NCCF)=NS2(=O)=O [Example 149]
# output f

# input Hello, is EC50 of the following compound strictly smaller than 40 nM? O=S1(=O)N=C(NCc2ccc(F)cc2)Nc2c(-c3cc(F)cc(F)c3)cccc21 [Example 75]
# output t

----------
biological target: hMRGX2 (CHO-K1 cells overexpressing MRGX2) (Homo sapiens (Human)); assay: In vitro inhibition (EC50) of intracellular calcium flux, FLIPR Tetra, substance P stimulation; assay type: cell-based; details: stimulated with MRGX2 ligand substance P, FLIPR Calcium 5, read-out: hMRGX2 Cellular Potency (pEC50) (converted)
Quick rule for you: EC50 under 100 nM gets MET, anything else gets NOT MET.

# input A record lists O=S1(=O)N=C(NCC2CC2)Nc2c(-c3ccnc(F)c3Cl)cccc21 [Example 50] . Is its EC50 below 100 nM?
# output MET

# input Given the entry COCCNC1=NS(=O)(=O)c2cccc(-c3cc(F)ccc3Cl)c2N1 [Example 144] , would its reported EC50 be below 100 nM?
# output NOT MET

# input In the record for O=S1(=O)N=C(NCc2ccccc2)Nc2c(-c3cc(F)cc(F)c3)cccc21 [Example 88] , is EC50 less than 100 nM?
# output MET

# input Hi there! Is EC50 for Cc1cc(NC2=NS(=O)(=O)c3cccc(-c4cccc(F)c4Cl)c3N2)nn1C(C)C [Example 74] below 100 nM, do you know?
# output NOT MET

# input Below 100 nM on EC50? Entry CC(C)c1ccc(NC2=NS(=O)(=O)c3cccc(-c4cnn(C5CCC5)c4)c3N2)cc1 [Example 105]
# output NOT MET

# input Regarding COCCNC1=NS(=O)(=O)c2cccc(-c3ccnc(F)c3Cl)c2N1 [Example 36] , kindly confirm whether its EC50 is beneath 100 nM.
# output MET

# input Hi there! Is EC50 for CC(C)c1ccc(NC2=NS(=O)(=O)c3cccc(-c4ccccc4Cl)c3N2)cc1 [Example 112] below 100 nM, do you know?
# output NOT MET

----------
target: hMRGX2 (CHO-K1 cells overexpressing MRGX2) (Homo sapiens (Human)); assay: In vitro inhibition (EC50) of intracellular calcium flux, FLIPR Tetra, substance P stimulation; format: cell-based; conditions: stimulated with MRGX2 ligand substance P, FLIPR Calcium 5, read-out: hMRGX2 Cellular Potency (pEC50) (converted)
attributeMeasured: log10 EC50 (log10 of the value in nM)
Answers are given as log10 of EC50 in nM.

# input Provide measured log10 EC50 value, entry: CNC1=NS(=O)(=O)c2cccc(-c3cccc(F)c3C)c2N1
# output 2.54

# input Let me know recorded log10 EC50 for COc1ccccc1CCNC1=NS(=O)(=O)c2cccc(-c3cccc(F)c3Cl)c2N1 , thanks.
# output 1.92

# input Quick one: give measured log10 EC50 for CNC1=NS(=O)(=O)c2cccc(-c3cccc(F)c3C3CC3)c2N1
# output 1.75

# input Give the value of log10 EC50 reported for the following: COC(C)CCNC1=NS(=O)(=O)c2cccc(-c3cccc(F)c3Cl)c2N1 (racemic)
# output 1.44

# input Please supply the value of reported log10 EC50 for the item COc1cccc(CCNC2=NS(=O)(=O)c3cccc(-c4cccc(F)c4Cl)c3N2)c1
# output 1.76

# input Using the record for CCNC1=NS(=O)(=O)c2cccc(-c3cccc(F)c3F)c2N1 , state its measured log10 EC50.
# output 2.46

# input In one line, give reported log10 EC50 of the entry O=S1(=O)N=C(NCC(F)F)Nc2c(-c3ccnc(F)c3Cl)cccc21 .
# output 2.76

# input Give me measured log10 EC50, please, for this compound: COCCNC1=NS(=O)(=O)c2cccc(-c3cc(F)ccc3F)c2N1
# output 2.56

# input Please report log10 EC50 for the following compound: O=S1(=O)N=C(NCC2CC2)Nc2c(-c3cccc(F)c3Cl)cc(F)cc21
# output 1.37

# input # return recorded log10 EC50 for entry Cc1cnccc1-c1cccc2c1NC(Nc1ccc(C(C)C)cc1)=NS2(=O)=O
# output 2.37

# input Kindly indicate its recorded log10 EC50. Item: O=S1(=O)N=C(NCc2nccs2)Nc2c(-c3ccnc(F)c3Cl)cccc21
# output 1.38

# input For the compound CC(C)c1ccc(NC2=NS(=O)(=O)c3cccc(C(C)C)c3N2)cc1 , give its measured log10 EC50 value.
# output 1.55

# input Answer with reported log10 EC50 of O=S1(=O)N=C(NCCF)Nc2c(-c3ccccc3Cl)cccc21
# output 2.48

# input Provide one value: measured log10 EC50 of COC(C)CNC1=NS(=O)(=O)c2cccc(-c3ccccc3C#N)c2N1 (stereo not drawn)
# output 2.15

# input Note log10 EC50 for the compound shown: Cc1ccccc1-c1cccc2c1NC(NCc1ccccn1)=NS2(=O)=O
# output 2.00

# input Check the records and state log10 EC50 for CC(C)c1ccc(NC2=NS(=O)(=O)c3cccc(C4CC4)c3N2)cc1
# output 2.03

# input Report log10 EC50, nothing else, for this compound: O=S1(=O)N=C(NCC2CCCO2)Nc2c(-c3cccc(F)c3Cl)cccc21 (stereo not drawn)
# output 1.78

# input Return value of log10 EC50 for input CC(C)c1ccc(NC2=NS(=O)(=O)c3cccc(C4CCC4)c3N2)cc1 , no commentary.
# output 2.03

# input Give log10 EC50 for O=S1(=O)N=C(NCc2c(F)cccc2F)Nc2c(-c3cc(F)cc(F)c3)cccc21
# output 2.35

# input Provide one value: measured log10 EC50 of CC(C)c1ccc(NC2=NS(=O)(=O)c3cccc(C4CC4)c3N2)cn1
# output 2.58

# input # return recorded log10 EC50 for input CC(NC1=NS(=O)(=O)c2cc(F)cc(-c3cccc(F)c3Cl)c2N1)c1cscn1 (stereo not drawn)
# output 2.16

# input Supply recorded log10 EC50 for COCCNC1=NS(=O)(=O)c2cccc(-c3cccc(Cl)c3F)c2N1 here.
# output 2.92

# input Hello, please tell me recorded log10 EC50 for this one: CCNC1=NS(=O)(=O)c2cccc(-c3cccc(F)c3Cl)c2N1
# output 1.72

# input In one line, give reported log10 EC50 of the entry O=S1(=O)N=C(NCc2cc(F)ccc2F)Nc2c(-c3cc(F)cc(F)c3)cccc21 .
# output 1.54

# input State, in one line, measured log10 EC50 of O=S1(=O)N=C(NCc2ncco2)Nc2c(-c3cccc(F)c3F)cccc21
# output 2.54

# input Please look at this compound and report its log10 EC50: O=S1(=O)N=C(NCc2ncco2)Nc2c(-c3ccnc(F)c3Cl)cccc21
# output 1.56

# input For O=S1(=O)N=C(NCc2cccc(F)n2)Nc2c(-c3cccc(F)c3Cl)cccc21 , write its log10 EC50.
# output 1.23

# input Query log10 EC50 for O=S1(=O)N=C(NCCC2CCCO2)Nc2c(-c3cccc(F)c3Cl)cccc21 (stereo not drawn)
# output 2.14

# input Provide only the value of recorded log10 EC50 for COC(C)CNC1=NS(=O)(=O)c2cccc(-c3cn(C)nc3C)c2N1 (stereo not drawn)
# output 2.94

# input Item COCCNC1=NS(=O)(=O)c2cc(F)cc(-c3ccccc3Cl)c2N1 : provide log10 EC50
# output 1.61

----------
molecular target: hMRGX2 (CHO-K1 cells overexpressing MRGX2) (Homo sapiens (Human)); assay: In vitro inhibition (EC50) of intracellular calcium flux, FLIPR Tetra, substance P stimulation; type: cell-based; settings: stimulated with MRGX2 ligand substance P, FLIPR Calcium 5, read-out: hMRGX2 Cellular Potency (pEC50) (converted)
For each of the compounds below, state its EC50.
Numeric answer only, unit nM assumed.

# input In one line, give reported EC50 of the entry CC(C)c1ccc(NC2=NS(=O)(=O)c3cccc(-c4ccn(C)n4)c3N2)cc1 .
# output 592

# input Kindly indicate its recorded EC50. Item: COCCNC1=NS(=O)(=O)c2cc(F)cc(-c3cccc(F)c3Cl)c2N1
# output 15.4

# input Give the reported value of EC50 for this record: N#Cc1c(F)cccc1-c1cccc2c1NC(NCc1nccs1)=NS2(=O)=O
# output 70

# input Name the recorded EC50 of the compound listed here: Cc1nn(C)cc1-c1cccc2c1NC(Nc1cccc(C(C)C)c1)=NS2(=O)=O
# output 54.8

# input Provide one value: measured EC50 of O=S1(=O)N=C(NCC(F)F)Nc2c(-c3ccccc3Cl)cccc21
# output 186

# input Return EC50 (reported value) for this compound: O=S1(=O)N=C(NCC2CCC2)Nc2c(-c3cccc(F)c3F)cccc21
# output 80.5

# input Consider the compound O=S1(=O)N=C(NCCF)Nc2c(-c3cccc(F)c3F)cccc21 . State its measured EC50.
# output 738

# input Retrieve EC50 measured for COCCNC1=NS(=O)(=O)c2cccc(-c3cccc(F)c3C#N)c2N1 and print it.
# output 78.2

# input Give reported EC50 value for O=S1(=O)N=C(NCc2ccccn2)Nc2c(-c3cccc(F)c3Cl)cccc21
# output 29.9

# input Give me measured EC50, please, for this compound: CO[C@@H](C)CCNC1=NS(=O)(=O)c2cccc(-c3cccc(F)c3Cl)c2N1
# output 35.2

# input For O=S1(=O)N=C(NCc2ncccc2F)Nc2c(-c3ccnc(F)c3Cl)cccc21 , write its EC50.
# output 19

# input Answer with reported EC50 of O=S1(=O)N=C(NCc2ncccc2F)Nc2c(C3CC3)cccc21
# output 484

# input For the compound COCCCNC1=NS(=O)(=O)c2cccc(-c3cccc(F)c3Cl)c2N1 , give its reported EC50.
# output 562

Hello, the source for this data is patent US12247015B2, in case you need it.
